# METHOD NOTES: Particle sizing assay (Zetasizer Nano ZS), in vivo formulations
# Assay type: physicochemical
# EXPERIMENTAL CONDITIONS: in vivo formulation A: Cationic lipid/Example 73/DSPC/Chol 45/10/15/30 wt %, lipid:siRNA 25:1
Would you mind telling me the reported Size of each entry?
The reply should be a number in nm, with the unit left off.

INPUT: Please look at this molecule and report its Size: CCCCC/C=C\C/C=C\CCCCCCCCOCC(CCN(C)CCN(C)C)OCCCCCCCC/C=C\C/C=C\CCCCC (stereo not shown)
OUTPUT: 160

INPUT: Please look at this molecule and report its Size: CCCCC/C=C\C/C=C\CCCCCCCCOCC(CCN1CCOCC1)OCCCCCCCC/C=C\C/C=C\CCCCC (stereo not shown)
OUTPUT: 89

INPUT: Please look at this molecule and report its Size: CCCCC/C=C\C/C=C\CCCCCCCCOC[C@H](CCN1CCCC1)OCCCCCCCC/C=C\C/C=C\CCCCC
OUTPUT: 103

INPUT: Please look at this molecule and report its Size: CCCCC/C=C\C/C=C\CCCCCCCCOC[C@@H](CCN1CCCC1)OCCCCCCCC/C=C\C/C=C\CCCCC
OUTPUT: 100

INPUT: Please look at this molecule and report its Size: CCCCC/C=C\C/C=C\CCCCCCCCOCC(CCN1CCC(N(C)C)C1)OCCCCCCCC/C=C\C/C=C\CCCCC (stereo not shown)
OUTPUT: 149

INPUT: Please look at this molecule and report its Size: CCCCC/C=C\C/C=C\CCCCCCCCOCC(CCN1CCCCC1)OCCCCCCCC/C=C\C/C=C\CCCCC (stereo not shown)
OUTPUT: 108

INPUT: Please look at this molecule and report its Size: CCCCC/C=C\C/C=C\CCCCCCCCOCC(CCN1CCCC1)OCCCCCCCC/C=C\C/C=C\CCCCC (stereo not shown)
OUTPUT: 96

INPUT: Please look at this molecule and report its Size: CCCCC/C=C\C/C=C\CCCCCCCCOCC(CCN(CC)CC)OCCCCCCCC/C=C\C/C=C\CCCCC (stereo not shown)
OUTPUT: 116

INPUT: Please look at this molecule and report its Size: CCCCC/C=C\C/C=C\CCCCCCCCOCC(CCN(C)CCOC)OCCCCCCCC/C=C\C/C=C\CCCCC (stereo not shown)
OUTPUT: 140

INPUT: Please look at this molecule and report its Size: CCCCC/C=C\C/C=C\CCCCCCCCOCC(CCOCCN1CCCC1)OCCCCCCCC/C=C\C/C=C\CCCCC (stereo not shown)
OUTPUT: 136

* * *

# METHOD NOTES: RiboGreen assay of siRNA encapsulation efficiency, in vitro formulations of Lipid-Based Particles
# Assay type: physicochemical
# EXPERIMENTAL CONDITIONS: in vitro formulation b: Cationic lipid/PEG-cholesterol/DSPC/Chol 45/10/15/30 wt %, lipid:siRNA 25:1
Would you mind telling me the reported % Encapsulation Efficiency of each entry?
The reply should be a number in %, with the unit left off.

INPUT: Please look at this compound and report its % Encapsulation Efficiency: CCCCCCCC/C=C\CCCCCCCCOCC(CCN1CCCC1)OCCCCCCCC/C=C\CCCCCCCC (stereo not shown)
OUTPUT: 99

INPUT: Please look at this compound and report its % Encapsulation Efficiency: CCCCC/C=C\C/C=C\CCCCCCCCOCC(CCOCCN(CC)CC)OCCCCCCCC/C=C\C/C=C\CCCCC (stereo not shown)
OUTPUT: 96.1

INPUT: Please look at this compound and report its % Encapsulation Efficiency: CCCCCCCC/C=C\CCCCCCCC(=O)OCC(CCN1CCCC1)OC(=O)CCCCCCC/C=C\CCCCCCCC (stereo not shown)
OUTPUT: 99

INPUT: Please look at this compound and report its % Encapsulation Efficiency: CCCCC/C=C\C/C=C\CCCCCCCCOCC(CCOCCN(C)C)OCCCCCCCC/C=C\C/C=C\CCCCC (stereo not shown)
OUTPUT: 96.4

INPUT: Please look at this compound and report its % Encapsulation Efficiency: CCCCC/C=C\C/C=C\CCCCCCCCOCC(CCOCCN1CCN(C)CC1)OCCCCCCCC/C=C\C/C=C\CCCCC (stereo not shown)
OUTPUT: 94.3

INPUT: Please look at this compound and report its % Encapsulation Efficiency: CCCCC/C=C\C/C=C\CCCCCCCCOCC(CCN1CCC(n2ccnc2)C1)OCCCCCCCC/C=C\C/C=C\CCCCC (stereo not shown)
OUTPUT: 98

INPUT: Please look at this compound and report its % Encapsulation Efficiency: CCCCC/C=C\C/C=C\CCCCCCCCOCC(CCN(CC)CC)OCCCCCCCC/C=C\C/C=C\CCCCC (stereo not shown)
OUTPUT: 96.9
